Listing: pIC50 of selected binders
# TEST_TARGET: T1, human IL-1β (human, UniProt P01584 117-269)
# T1 construct: antigen of the ABT2 dAbs; also called hIL-1β; IL-1 beta
# TEST: IC50 column of Table 63; receptor binding assay presumed
To interpret pIC50, take it as minus log10 of a concentration measured in moles per litre.

>>> numeric_result("ABT2-65-6 (other, VH dAb) VH: EVQLLESGGGLVQPGGSLRLSCAASGFTFEDYQMGWVRQAPGKGLEWVSSISAMGNRTYYADSVKGRFTISRDDSKNTLYLQMNSLRAEDTAVYYCAQNLVRTQSKMWMFDYWGQGTLVTVSS")
7.52
>>> numeric_result("ABT2-59 (other, VK dAb) VL: DIQMTQSPSSLSASVGDRVTITCRASQSINVFLSWYQQKPGKAPKLLIYNASNLQSGVPSRFSGSGSGTDFTLTISSLQPEDFATYYCQQRALYPTTFGQGTKVEIKR")
6.15
>>> numeric_result("ABT2-65-129 (other, VH dAb) VH: EVQLLESGGGLVQPGGSLRLSCVASGFTFEDYQMGWVRQAPGKGLEWVSTVSAMGNRTYYADSMKGRFTISRDDSKNTLYLQMNSLRAEDTAVYYCAQNLVRLGRSRWMFDYWGQGTLVTVSS")
8.47
>>> numeric_result("ABT2-65-113 (other, VH dAb) VH: EVQLLESGGGLVQPGGSLRLSCAASGFTFVQYQMGWVRQAPGKGLEWVSSISAMGNRTYYADSVKGRFTISRDDSKNTLYLQMNSLRAEDTAVYYCAQNLVRLGRSRWMFDYWGQGTLVTVSS")
8.48

[in] Returns the measured pIC50 for the input binder. Input: ABT2-65-83 (other, VH dAb) VH: EVQLLESGGGLVQPGGSLRLSCVASGFTFEDYQMGWVRQAPGKGLEWVSSISAMGNRTYYADSVKGRFTISRDDSKNTLYLQMNSQRAEDTAVYYCAQNLVRLGRSRWMFDYWGQGTLVTVSS
[out] 6.52

[in] Could you do the same for ABT2-65-169 (other, VH dAb) VH: EVQLLESGGGLVQPGGSLRLSCAASGFTFEDYQMGWVRQAPGKGLEWVSSISAMGNRTYYADSVKGRFTISRDDSKNTLYLQMNSLRAEDTAVYYCAENLVNWRRGSWMFDYWGQGTLVTVSS , please?
[out] 8.05

[in] Could you do the same for ABT2-65-130 (other, VH dAb) VH: EVQLLESGGGLVQPGGSLRLSCVASGFTFEDYQMGWVRQAPGKGLEWVSSISAMVNRTYYADSVKGRFTISRDDSKNTLYLQMNSLRAEDTAVYYCAQNLVRLGRSRWMFDYWGQGTLVTVSS , please?
[out] 8.37

[in] Could you do the same for ABT2-60 (other, VK dAb) VL: DIQMTQSPSSLSASVGDRVTITCRASQSIRVFLSWYQQKPGKAPKLLIYNASNLQSGVPSRFSGSGSGTDFTLTISSLQPEDFATYYCQQRALYPTTFGQGTKVEIKR , please?
[out] 6.00
